# ASSAY_DETAILS: qHTS for Inhibitors of the Functional Ribonucleoprotein Complex (vRNP) of Lassa (LASV) Arenavirus: LASV Primary Screen - GLuc reporter signal (AID 1347082); note: nearly all actives have a fitted effect of over 60% in size
# CONDITION_LABEL: LASV minigenome vRNP, Gaussia luciferase reporter; series mostly up to 57.5 µM
Inconclusive results are not listed. Activity calls are given as the source filed them. Calls come from the whole dose curve; tested in HEK293 reporter line.
PROPERTY_NAME: outcome

# count of solved cases: 5
COMPOUND	outcome
Nc1ccc(CCNc2ncnc3c2ncn3C2OC(CO)C(O)C2O)cc1 (stereo unspecified)	inactive
C[C@H](Cn1cnc2c(N)ncnc21)OCP(=O)(O)O	inactive
O=c1c(O)c(-c2cc(O)c(O)c(O)c2)oc2cc(O)ccc12	inactive
CN(C)CCC(c1ccc(Cl)cc1)c1ccccn1 (stereo unspecified)	inactive
C[C@]12C[C@H](O)CC(CO)(CO)C1[C@H](O)C[C@@]13CC4[C@@H](CC12)[C@@]4(C)C3 (stereo partly specified)	inactive

# next compound below
GET /values?readout=outcome&item= CN1CCc2ccccc2Cc2[nH]c3ccccc3c2CC1
inactive
